- Tested on: JEG3
- experiment: Cancer cell growth inhibition
- Format: cell-based
- cond: Homo sapiens, JEG-3; JEG3 (placenta), 72 hr treatment
quantityName: IC50

Returns the measured IC50 for the input compound. Input: CC(C)(CO)c1cc(-c2csc(-c3ccc(NS(C)(=O)=O)cc3Cl)c2)ccn1 [Compound I-8909]
< 10 µM

Returns the measured IC50 for the input compound. Input: CC(C)(O)Cc1cc(-c2csc(-c3ccc(NS(C)(=O)=O)cc3Cl)c2)ccn1 [Compound I-9004]
< 10 µM

Returns the measured IC50 for the input compound. Input: CS(=O)(=O)Nc1ccc(-c2cc(-c3ccnc4c3OCCO4)cs2)c(Cl)c1 [Compound I-9017]
< 10 µM

* * *

Could you please report measured IC50 for the items listed next?
- Test system: DLD1
- experiment: Cancer cell growth inhibition
- Assay type: cell-based
- cond: Homo sapiens, DLD-1; DLD1 (colon), 72 hr treatment

Returns the measured IC50 for the input compound. Input: CC(C)(O)Cc1cc(-c2csc(-c3ccc(NS(C)(=O)=O)cc3Cl)c2)ccn1 [Compound I-9004]
< 10 µM

Returns the measured IC50 for the input compound. Input: CS(=O)(=O)Nc1ccc(-c2cc(-c3ccnc4c3OCCO4)cs2)c(Cl)c1 [Compound I-9017]
< 10 µM

Returns the measured IC50 for the input compound. Input: CC(C)(CO)c1cc(-c2csc(-c3ccc(NS(C)(=O)=O)cc3Cl)c2)ccn1 [Compound I-8909]
< 10 µM

* * *

- Test system: HL-60
- experiment: Cancer cell growth inhibition
- Format: cell-based
- cond: Homo sapiens; HL-60 (hematological), 72 hr treatment
quantityName: IC50

Write down the reported IC50 of CC(C)(O)Cc1cc(-c2csc(-c3ccc(NS(C)(=O)=O)cc3Cl)c2)ccn1 [Compound I-9004] , test system: HL-60.
< 10 µM

Write down the reported IC50 of CC(C)(CO)c1cc(-c2csc(-c3ccc(NS(C)(=O)=O)cc3Cl)c2)ccn1 [Compound I-8909] , test system: HL-60.
< 10 µM

Write down the reported IC50 of CS(=O)(=O)Nc1ccc(-c2cc(-c3ccnc4c3OCCO4)cs2)c(Cl)c1 [Compound I-9017] , test system: HL-60.
< 10 µM

* * *

- System: PANC1005
- experiment: Cancer cell growth inhibition
- Type: cell-based
- cond: Homo sapiens; PANC1005 (pancreas), 72 hr treatment
pIC50: −log10 of the molar value.
Could you please report measured pIC50 for the items listed next?

Write down the reported pIC50 of CC(C)(CO)c1cc(-c2csc(-c3ccc(NS(C)(=O)=O)cc3Cl)c2)ccn1 [Compound I-8909] , test system: PANC1005.
> 5.00

Write down the reported pIC50 of CC(C)(O)Cc1cc(-c2csc(-c3ccc(NS(C)(=O)=O)cc3Cl)c2)ccn1 [Compound I-9004] , test system: PANC1005.
> 5.00

Write down the reported pIC50 of CS(=O)(=O)Nc1ccc(-c2cc(-c3ccnc4c3OCCO4)cs2)c(Cl)c1 [Compound I-9017] , test system: PANC1005.
< 5.00

* * *

Could you please report measured IC50 for the items listed next?
- Test system: HEPG2
- experiment: Cancer cell growth inhibition
- Format: cell-based
- cond: Homo sapiens; HEPG2 (liver), 72 hr treatment

Write down the reported IC50 of CS(=O)(=O)Nc1ccc(-c2cc(-c3ccnc4c3OCCO4)cs2)c(Cl)c1 , test system: HEPG2.
< 10 µM

Write down the reported IC50 of CC(C)(O)Cc1cc(-c2csc(-c3ccc(NS(C)(=O)=O)cc3Cl)c2)ccn1 , test system: HEPG2.
< 10 µM

Write down the reported IC50 of CC(C)(CO)c1cc(-c2csc(-c3ccc(NS(C)(=O)=O)cc3Cl)c2)ccn1 , test system: HEPG2.
< 10 µM
